Quick reference for melting point among some compounds

compound	melting point
COCCNC(=O)c1cccc(-c2ccc3c(c2)N(c2ccc(Cl)cc2Cl)CC3)c1	119 to 120 °C
COc1ccc(C(=O)N[C@H]2CCN(C)C[C@H]2c2ccc3c(c2)OCO3)cc1OC (relative stereo)	193 to 194 °C
O=C(O)C1CCc2c(oc3ccc(Cl)cc23)C1 (stereo not given)	194 to 198 °C

Entry c1ccc(C(c2ccccc2)N2CCN(CCCn3cnc4ccccc43)CC2)cc1 — recorded melting point = 132 °C

Entry O=C(O)/C=C/c1ccn(C2CCCCCC2)c1 — recorded melting point = 138 to 140 °C

Entry COC(=O)N1CC=C(c2ccc(N3C[C@H](CNC(C)=O)OC3=O)cc2)CC1 — recorded melting point = 142 to 145 °C

The values you see were collected from a melting point compilation (Tetko et al.; mined from patent text by program, amines drawn as free bases though some values may be those of a salt).
